Target: p38MAPKγ (MAPK12) (Homo sapiens)
Construct: purchased Life Technologies
Sequence (P53778 whole entry): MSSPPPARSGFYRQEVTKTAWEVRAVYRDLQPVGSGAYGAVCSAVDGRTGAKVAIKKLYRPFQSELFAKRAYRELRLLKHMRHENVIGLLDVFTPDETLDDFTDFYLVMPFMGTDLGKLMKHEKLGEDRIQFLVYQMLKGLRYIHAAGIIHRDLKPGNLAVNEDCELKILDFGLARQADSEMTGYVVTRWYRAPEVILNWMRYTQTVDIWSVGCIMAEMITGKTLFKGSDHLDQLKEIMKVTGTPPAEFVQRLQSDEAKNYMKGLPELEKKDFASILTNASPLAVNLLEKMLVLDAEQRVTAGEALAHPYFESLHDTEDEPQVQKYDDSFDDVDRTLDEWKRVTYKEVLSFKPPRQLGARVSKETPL
Assay: p38 MAPKγ enzyme inhibition (Z-LYTE FRET)
Assay type: biochemical
Settings: Table 2B, unit inferred; read-out: p38 MAPKγ (Enzyme Profile)
Recorded measurements of IC50, one per entry

COMPOUND	BOUND_SIGN	IC50 [nM]
Cc1cc(F)cc(-n2nc(C(C)(C)C)cc2NC(=O)Nc2ccc(OCc3ccnc(Nc4cnc(C(=O)N5CCCC5)cn4)c3)c3ccccc23)c1	>	14000
Cc1ccc(-n2nc(C(C)(C)C)cc2NC(=O)Nc2ccc(OCc3ccnc(Nc4cnc(C(=O)NCCOC(C)C)cn4)c3)c3ccccc23)cc1	>	13700
Cc1ccc(-n2nc(C(C)(C)C)cc2NC(=O)Nc2ccc(OCc3ccnc(Nc4cncc(C5CCOCC5)n4)c3)c3ccccc23)cc1	=	74
COCCNC(=O)c1cnc(Nc2cc(COc3ccc(NC(=O)Nc4cc(C(C)(C)C)nn4-c4cccc(C)c4)c4ccccc34)ccn2)cn1	=	240
COCC#Cc1cncc(Nc2cc(COc3ccc(NC(=O)Nc4cc(C(C)(C)C)nn4-c4ccc(C)cc4)c4ccccc34)ccn2)n1	>	15000
Cc1ccc(-n2nc(C(C)(C)C)cc2NC(=O)Nc2ccc(OCc3ccnc(Nc4cncc(N)n4)c3)c3ccccc23)cc1	=	401
